# Species: Mus musculus
# Experiment: Otoprotective activity against gentamicin-induced outer hair cell death in CD-1 mouse cochlea at 20 uM after 48 hrs by TRITC-phalloidin staining-based microscopic analysis relative to control
# Type: functional
Active and inactive are the calls of the source. The rule behind the calls is not given here.
A correct response names exactly one class from true (active), false (inactive)

For orientation, consider the following solved cases.
Compound | Assigned label
OC(CNCCc1ccccc1)Cn1c2ccccc2c2ccccc21 (configuration not stated) | false
CC(C)NCC(O)COc1cccc2ccccc12 (configuration not stated) | false
OC(CNCCOc1ccccc1)COc1cccc2[nH]c3ccccc3c12 (configuration not stated) | false
COc1ccccc1OCCNCC(O)COc1ccc2c(c1)[nH]c1ccccc12 (configuration not stated) | false
COc1ccccc1OCCNCCCOc1cccc2[nH]c3ccccc3c12 | true
COc1ccccc1OCCNCCOc1ccccc1OC | false
Cn1cc(C(F)(F)F)nc1-c1ccc(OCC(O)CNCCOc2ccc(O)c(C(N)=O)c2)cc1 (configuration not stated) | false
COc1ccccc1N1CCN(CC(O)COc2cccc3ccccc23)CC1 (configuration not stated) | true
CCCCNCC(O)COc1cccc2[nH]c3ccccc3c12 (configuration not stated) | true
COc1ccccc1OCCN(CCOc1ccccc1OC)CC(O)COc1cccc2[nH]c3ccccc3c12 (configuration not stated) | true

Enquiry: Name the outcome recorded for COc1ccccc1OCCN(CCN1CCOCC1)CC(O)COc1cccc2[nH]c3ccccc3c12 (configuration not stated) in the assay.
Return: true

---

# Organism: Danio rerio
# Experiment: Otoprotective activity against neomycin-induced neuromast hair cell death in 4 days post fertilized AB zebrafish larvae assessed as increase in hair cell survival incubated for 1 hr by inverted microscopic method
# Type: functional, organism-based
Field: pEC50. Provide a value for each of the compounds that follow.
Give bare numbers, as −log10 of the molar value.

Compound | Assay readout | Test result
COc1ccccc1OCCNCCCOc1cccc2[nH]c3ccccc3c12 | pEC50 | 5.68

// next item, pEC50 requested
Enquiry: Requested read-out: pEC50. Entry: COc1ccccc1OCCNCC(O)COc1cccc2[nH]c3ccccc3c12 (configuration not stated)
Return: 5.61

---

# Organism: Mus musculus
# Experiment: Inhibition of MET in CD-1 mouse cochlea outer hair cells assessed as reduction in MET currents at 10 uM measured at -160 mV to +80 mV membrane potential by patch clamp assay
The source made the active and inactive calls. No cut-off for these calls is given here.
A correct response names exactly one class from active, inactive

For orientation, consider the following solved cases.
Compound | Assigned label
COc1ccccc1OCCNCC(O)COc1ccccc1OC (centres undefined) | inactive
COc1ccccc1OCCN(CCN1CCOCC1)CC(O)COc1cccc2[nH]c3ccccc3c12 (centres undefined) | active

Enquiry: Name the outcome recorded for COc1ccccc1N1CCN(CC(O)COc2cccc3ccccc23)CC1 (centres undefined) in the assay.
Return: inactive

Enquiry: Name the outcome recorded for COc1ccccc1OCCNCCOc1ccccc1OC in the assay.
Return: inactive
